test system: 201T; assay: relative viability (nuclei count vs DMSO), 5 days (fraction); higher = more cells survive; conditions: first compound 0.3162 µM
measurement type: relative viability
Response field accepts a number only; no unit should be typed.

{"columns": ["compound", "measurement type", "test result"],
 "data": [
  ["CC(C)Oc1cc(Nc2nc(N[C@@H](C)c3ccc(F)cn3)ncc2Cl)n[nH]1 [AZ23] + O=C(CCCCCCC(=O)Nc1ccccc1)NO [Vorinostat] (partner 1 µM)", "relative viability", 1.08],
  ["CC(C)Oc1cc(Nc2nc(N[C@@H](C)c3ccc(F)cn3)ncc2Cl)n[nH]1 [AZ23] + O=C(c1cc(Cc2n[nH]c(=O)c3ccccc23)ccc1F)N1CCN(C(=O)C2CC2)CC1 [Olaparib] (partner 8 µM)", "relative viability", 0.85]
]}

### Prompt For CC(C)Oc1cc(Nc2nc(N[C@@H](C)c3ccc(F)cn3)ncc2Cl)n[nH]1 [AZ23] + C[C@@H](Oc1cc(-c2cnn(C3CCNCC3)c2)cnc1N)c1c(Cl)ccc(F)c1Cl [Crizotinib] (partner 1 µM) , write its relative viability.
### Response 1.01

### Prompt Output measured relative viability for this item: CC(C)Oc1cc(Nc2nc(N[C@@H](C)c3ccc(F)cn3)ncc2Cl)n[nH]1 [AZ23] + CS(=O)(=O)CCNCc1ccc(-c2ccc3ncnc(Nc4ccc(OCc5cccc(F)c5)c(Cl)c4)c3c2)o1 [Lapatinib] (partner 2 µM)
### Response 1.1

### Prompt For CC(C)Oc1cc(Nc2nc(N[C@@H](C)c3ccc(F)cn3)ncc2Cl)n[nH]1 [AZ23] + Nc1ncn([C@H]2C[C@H](O)[C@@H](CO)O2)c(=O)n1 [Decitabine] (partner 2 µM) , write its relative viability.
### Response 0.86
